Target: T1, human α4β7 integrin on cells (human, UniProt P13612 34-1032; P26010 20-798)
T1 construct: whole, on cells; also called α4β7 cell (Hu); RPMI8866 cells
Assay: RPMI8866 cell adhesion to MAdCAM-1
pIC50: −log10 of the molar value. Bridge positions count the residues as written; N and C are the ends. Square brackets hold non-standard residues; d marks the D form. Phe(4-CF3) = N[C@@H](Cc1ccc(C(F)(F)F)cc1)C(=O)O; Phe(4-tBu) = CC(C)(C)c1ccc(C[C@H](N)C(=O)O)cc1; NMeR = CN[C@@H](CCCNC(=N)N)C(=O)O; β3hE = N[C@@H](CCC(=O)O)CC(=O)O; Pen = CC(C)(S)[C@H](N)C(=O)O
measuredMetric: pIC50

Solved entries (count: 2):
{"binder": "XRSDTLXW (Ac Pen N-Me-R S D T L Pen W OH; disulfide Pen-Pen) [SEQ ID NO: 127]", "result": "< 7.00"}
{"binder": "Ac-[Pen][NMeR]SQIQ[Pen][Phe(4-tBu)][β3hE][dK]-NH2 (disulfide 1-7; also: homodimer via IDA linker on D-Lys10 side chains) [SEQ ID NO: 190]", "result": "< 4.00"}

Input line: What measured pIC50 goes with Ac-[Pen][NMeR]SDTL[Pen]WE[dK]-NH2 (disulfide 1-7; not fully specified (residue 10); printed as (Ac Pen N-Me-R S D T L Pen W E k NH2)2 DIG, disulfide Pen-Pen; also: homodimer via DIG linker, also called Peptide Z) [SEQ ID NO: 67] ?
Output line: ≥ 8.00

Input line: What pIC50 value was documented for this binder, Ac-[Pen][NMeR]SDTL[Pen][Phe(4-tBu)][β3hE][dK]-NH2 (disulfide 1-7; not fully specified (residue 10); printed as (Ac Pen N-Me-R S D T L Pen F(4-tBu) b-H-E k NH2)2 IDA, disulfide Pen-Pen; also: homodimer (…)2 IDA via D-Lys10 NZ) [SEQ ID NO: 166] ?
Output line: ≥ 8.00

Input line: Recorded pIC50 of Ac-[Pen][NMeR]SDDL[Pen][Phe(4-tBu)][β3hE][dK]-NH2 (disulfide 1-7; also: homodimer via IDA linker on D-Lys10 side chains) [SEQ ID NO: 191] , please.
Output line: < 5.00

Input line: Report pIC50 for Ac-[Pen][NMeR]SDTL[Pen]W[βGlu][dK]-NH2 (disulfide 1-7; not fully specified (residue 10); printed as (Ac Pen N-Me-R S D T L Pen W Beta-E k NH2)2 DIG; also: homodimer: two subunits joined by DIG linker) [SEQ ID NO: 1] please.
Output line: < 7.30

Input line: Which pIC50 reading was recorded for the binder Ac-[Pen][NMeR]SDTL[Pen][Phe(4-CF3)][dE][dK]-NH2 (disulfide 1-7; not fully specified (residue 10); printed as (Ac Pen N-Me-R S D T L Pen F(4-CF3) e k NH2)2 DIG, disulfide Pen-Pen; also: dimer, two subunits joined by DIG linker) [SEQ ID NO: 3] ?
Output line: < 7.60
